test system: STING activation (IFNβ release) in iBMDMs; test: IFNβ release ELISA after STING ligand (or LPS) stimulation, iBMDMs; format: cell-based, mouse; settings: iBMDMs; 3′3′-cGAMP 10 μg/ml, 16 hours; compound 10 μM
Assay Metric: fold increase in IFN-β release (fold)
Use fold as the unit, but write only the number.

**Query** For the compound shown here, COc1ccc(C[C@@H](C)NC[C@H](O)c2ccc(O)c(NC=O)c2)cc1.COc1ccc(C[C@@H](C)NC[C@H](O)c2ccc(O)c(NC=O)c2)cc1.O=C(O)/C=C/C(=O)O [Formoterol Hemifumarate] , give the reported fold increase in IFN-β release.
**Result** 1.76

**Query** For the compound shown here, Cc1nn(-c2ccccc2)c(C)c1/C=N/N1CCN(Cc2ccccc2)CC1 , give the reported fold increase in IFN-β release.
**Result** 1.49

**Query** For the compound shown here, O=C(O)c1cccc(-c2noc(-c3ccccc3F)n2)c1 , give the reported fold increase in IFN-β release.
**Result** 1.74

**Query** For the compound shown here, Cc1cc(C(N)=O)ccc1-n1c(CCC(=O)O)ccc1-c1ccc(-n2ccnc2)cc1 , give the reported fold increase in IFN-β release.
**Result** 0.75

**Query** For the compound shown here, CN1CCCCC1Cn1cc(C(=O)c2cc([N+](=O)[O-])ccc2I)c2ccccc21 (stereo not drawn) , give the reported fold increase in IFN-β release.
**Result** 8.07

**Query** For the compound shown here, Cc1cc(OCc2nnc(SC3CCCC3)n2-c2cccnc2)ccc1-c1ccc(S(C)(=O)=O)cc1 , give the reported fold increase in IFN-β release.
**Result** 1.90

**Query** For the compound shown here, COc1ccc2c(c1)C(=O)N(CCc1ccc(S(=O)(=O)NC(=O)NC3CCCCC3)cc1)C(=O)C2(C)C , give the reported fold increase in IFN-β release.
**Result** 1.20

**Query** For the compound shown here, CO[C@H]1C[C@@H]2CC[C@@H](C)[C@@](O)(O2)C(=O)C(=O)N2CCCC[C@H]2C(=O)O[C@H]([C@H](C)C[C@@H]2CC[C@@H](OCCO)[C@H](OC)C2)CC(=O)[C@H](C)/C=C(\C)[C@@H](O)[C@@H](OC)C(=O)[C@H](C)C[C@H](C)/C=C/C=C/C=C/1C [Everolimus (RAD001), Everolimus] , give the reported fold increase in IFN-β release.
**Result** 1.01

**Query** For the compound shown here, CN1CCN(c2nc(C3=C(c4c[nH]c5ccccc45)C(=O)NC3=O)c3ccccc3n2)CC1 , give the reported fold increase in IFN-β release.
**Result** 0.59

**Query** For the compound shown here, COc1cc2ncnc(Nc3ccc(Cl)cc3F)c2cc1OC , give the reported fold increase in IFN-β release.
**Result** 0.14

**Query** For the compound shown here, O=C(Nc1ccccc1)c1cc([N+](=O)[O-])ccc1Cl , give the reported fold increase in IFN-β release.
**Result** 2.50

**Query** For the compound shown here, Cc1nnc(C(=O)NC(C)(C)c2nc(C(=O)NCc3ccc(F)cc3)c(O)c(=O)n2C)o1 , give the reported fold increase in IFN-β release.
**Result** 4.80

**Query** For the compound shown here, COc1ccc(C2CNC(=O)C2)cc1OC1CCCC1 (stereo not drawn) , give the reported fold increase in IFN-β release.
**Result** 1.85

**Query** For the compound shown here, O=C(N/N=C/c1ccc(O)c(O)c1)c1cc2ccccc2cc1O , give the reported fold increase in IFN-β release.
**Result** 1.62

**Query** For the compound shown here, CCc1cc(Nc2nccc(-c3c(-c4ccc(OC)c(C(=O)Nc5c(F)cccc5F)c4)nc4ccccn34)n2)c(OC)cc1N1CCC(N2CCN(S(C)(=O)=O)CC2)CC1 [GSK1904529A] , give the reported fold increase in IFN-β release.
**Result** 1.05

Values compiled from patent US11179412B2.
